experiment: in vivo; settings: rat, in vivo, po, 80 mg/kg, BA
testReadout: bioavailability (%)

[[record]]
structuresmilesstring = "O=C(Nc1cccc2c(=O)cc(-c3nnn[nH]3)oc12)c1ccc(OCCCCc2ccccc2)cc1"
testreadout = "bioavailability"
experimentalvalue = 0.8


====

Assay: Solubility of Compound 1 in 50% 0.1M salt solution (pH7)/50% absolute alcohol
Type: physicochemical
Conditions: 50% salt solution/50% ethanol, pH 7, organic solvent or mixture, read-out: Solubility
From the text: Solubility of Compound 1 in 50% 0.1M salt solution (pH7)/50%
testReadout: solubility (µg/mL)

[[record]]
structuresmilesstring = "O=C(Nc1cccc2c(=O)cc(-c3nnn[nH]3)oc12)c1ccc(OCCCCc2ccccc2)cc1"
experimentalvalue = 1600


====

test: Solubility of Compound 1 salts in water, ethanol and PEG 400; format: physicochemical; settings: water, aqueous; free acid; read-out: aqueous solubility of Compound 1 free acid
testReadout: solubility

[[record]]
structuresmilesstring = "O=C(Nc1cccc2c(=O)cc(-c3nnn[nH]3)oc12)c1ccc(OCCCCc2ccccc2)cc1"
testreadout = "solubility"
experimentalvalue = "< 10 µg/mL"


====

test: Solubility of Compound 1 salts in water, ethanol and PEG 400; assay type: physicochemical; details: peg 400, organic solvent or mixture, PEG 400; read-out: Solubility in PEG 400
testReadout: solubility

[[record]]
molecule = "O=C(Nc1cccc2c(=O)cc(-c3nnn[nH]3)oc12)c1ccc(OCCCCc2ccccc2)cc1 [Sodium]"
testreadout = "solubility"
experimentalvalue = "> 10000 µg/mL"


====

experiment: Solubility of Compound 1 in 50% solvent systems/50% sodium phosphate (pH7) at different molarities; type: physicochemical; settings: 50% thf/0.25m sodium phosphate, pH 7, organic solvent or mixture; 50% THF / 50% sodium phosphate pH7, 0.25M
testReadout: solubility

[[record]]
compound = "O=C(Nc1cccc2c(=O)cc(-c3nnn[nH]3)oc12)c1ccc(OCCCCc2ccccc2)cc1 [Compound 1]"
testreadout = "solubility"
experimentalvalue = "49.3 mg/mL"


====

experiment: Solubility of Compound 1 in 50% solvent systems/50% sodium phosphate (pH7) at different molarities; format: physicochemical; settings: 50% thf/0.1m sodium phosphate, pH 7, organic solvent or mixture; 50% THF / 50% sodium phosphate pH7, 0.1M
testReadout: solubility (mg/mL)

[[record]]
structuresmilesstring = "O=C(Nc1cccc2c(=O)cc(-c3nnn[nH]3)oc12)c1ccc(OCCCCc2ccccc2)cc1"
experimentalvalue = 22.3


====

assay: Solubility of Compound 1 in 50% solvent systems/50% sodium phosphate (pH7) at different molarities; type: physicochemical; settings: 50% peg 400/0.1m sodium phosphate, pH 7, organic solvent or mixture; 50% PEG 400 / 50% sodium phosphate pH7, 0.1M
testReadout: solubility (mg/mL)

[[record]]
structuresmilesstring = "O=C(Nc1cccc2c(=O)cc(-c3nnn[nH]3)oc12)c1ccc(OCCCCc2ccccc2)cc1"
testreadout = "solubility"
experimentalvalue = 20.5


====

test: Solubility of Compound 1 in 50% solvent systems/50% sodium phosphate (pH7) at different molarities; format: physicochemical; conditions: 50% ethanol/0.1m sodium phosphate, pH 7, organic solvent or mixture; 50% ethanol / 50% sodium phosphate pH7, 0.1M
testReadout: solubility (mg/mL)

[[record]]
compound = "O=C(Nc1cccc2c(=O)cc(-c3nnn[nH]3)oc12)c1ccc(OCCCCc2ccccc2)cc1 [Compound 1]"
experimentalvalue = 16.2

